The values you see were collected from BigSolDB 2.1.

# appliedConditions: in isopentanol, 303.15 K
measurementType: solubility (mole fraction)

Q) Annotate the molecule CCCCCCCC(=O)NCC(=O)O with its measured solubility (mole fraction).
A) 0.0978

----------
# appliedConditions: in isopropanol, 323.15 K
measurementType: solubility (mole fraction)
Form rule: numeric answer, no unit written next to it.

Q) Supply solubility (mole fraction) value. Item: CCCCCCCC(=O)NCC(=O)O
A) 0.108

----------
# appliedConditions: in n-pentanol, 288.35 K
measurementType: solubility (mole fraction)
# answer = number (no unit)

Q) Supply solubility (mole fraction) value. Item: CCCCCCCC(=O)NCC(=O)O
A) 0.0559

----------
# appliedConditions: in 2-butanone, 278.15 K
measurementType: solubility (mole fraction)

Q) Give the reported value of solubility (mole fraction) for this record: CCCCCCCC(=O)NCC(=O)O
A) 0.0153

----------
# appliedConditions: in cyclopentanone, 317.65 K
measurementType: solubility (mole fraction)

Q) Give the reported value of solubility (mole fraction) for this record: CCCCCCCC(=O)NCC(=O)O
A) 0.164

----------
# appliedConditions: in cyclopentanone, 288.35 K
measurementType: solubility (mole fraction)
Form: value (number only, do not type unit).

Q) Fill in reported solubility (mole fraction) for this entry: CCCCCCCC(=O)NCC(=O)O
A) 0.039

----------
# appliedConditions: in n-pentanol, 283.15 K
measurementType: solubility (mole fraction)

Q) For CCCCCCCC(=O)NCC(=O)O , write its solubility (mole fraction).
A) 0.0413

----------
# appliedConditions: in ethyl formate, 313.25 K
measurementType: solubility (mole fraction)
# print the numeric value only

Q) Output measured solubility (mole fraction) for this item: CCCCCCCC(=O)NCC(=O)O
A) 0.0247

----------
# appliedConditions: in methanol, 303.15 K
measurementType: solubility (mole fraction)

Q) # return recorded solubility (mole fraction) for entry CCCCCCCC(=O)NCC(=O)O
A) 0.204

----------
# appliedConditions: in isobutanol, 303.15 K
measurementType: solubility (mole fraction)
Could you respond with only the numeric value?

Q) Name the recorded solubility (mole fraction) of the item CCCCCCCC(=O)NCC(=O)O in your answer.
A) 0.0762

----------
# appliedConditions: in 2-pentanone, 323.15 K
measurementType: solubility (mole fraction)

Q) Please supply the value of reported solubility (mole fraction) for the item CCCCCCCC(=O)NCC(=O)O
A) 0.0915

----------
# appliedConditions: in n-butanol, 278.15 K
measurementType: solubility (mole fraction)

Q) Answer with the recorded solubility (mole fraction) of CCCCCCCC(=O)NCC(=O)O only.
A) 0.0313

----------
# appliedConditions: in ethyl acetate, 288.35 K
measurementType: solubility (mole fraction)
Quick one: just the number, no unit, thanks!

Q) Annotate the compound CCCCCCCC(=O)NCC(=O)O with its measured solubility (mole fraction).
A) 0.00705

----------
# appliedConditions: in n-propanol, 317.65 K
measurementType: solubility (mole fraction)
Could you keep your reply to the number by itself?

Q) Name the recorded solubility (mole fraction) of the item CCCCCCCC(=O)NCC(=O)O in your answer.
A) 0.323

----------
# appliedConditions: in isobutanol, 283.15 K
measurementType: solubility (mole fraction)
Please give only the number in your answer, with no unit.

Q) Look up solubility (mole fraction) of CCCCCCCC(=O)NCC(=O)O and report it.
A) 0.0327

----------
# appliedConditions: in isopentanol, 313.25 K
measurementType: solubility (mole fraction)
Would you mind answering with just the numeric figure?

Q) Could you please provide reported solubility (mole fraction) for CCCCCCCC(=O)NCC(=O)O ? Thanks!
A) 0.142
